STUDY_SYSTEM: human IGF-I receptor (human, UniProt P08069 31-1367)
Sequence (P08069 31-1367 limits assumed): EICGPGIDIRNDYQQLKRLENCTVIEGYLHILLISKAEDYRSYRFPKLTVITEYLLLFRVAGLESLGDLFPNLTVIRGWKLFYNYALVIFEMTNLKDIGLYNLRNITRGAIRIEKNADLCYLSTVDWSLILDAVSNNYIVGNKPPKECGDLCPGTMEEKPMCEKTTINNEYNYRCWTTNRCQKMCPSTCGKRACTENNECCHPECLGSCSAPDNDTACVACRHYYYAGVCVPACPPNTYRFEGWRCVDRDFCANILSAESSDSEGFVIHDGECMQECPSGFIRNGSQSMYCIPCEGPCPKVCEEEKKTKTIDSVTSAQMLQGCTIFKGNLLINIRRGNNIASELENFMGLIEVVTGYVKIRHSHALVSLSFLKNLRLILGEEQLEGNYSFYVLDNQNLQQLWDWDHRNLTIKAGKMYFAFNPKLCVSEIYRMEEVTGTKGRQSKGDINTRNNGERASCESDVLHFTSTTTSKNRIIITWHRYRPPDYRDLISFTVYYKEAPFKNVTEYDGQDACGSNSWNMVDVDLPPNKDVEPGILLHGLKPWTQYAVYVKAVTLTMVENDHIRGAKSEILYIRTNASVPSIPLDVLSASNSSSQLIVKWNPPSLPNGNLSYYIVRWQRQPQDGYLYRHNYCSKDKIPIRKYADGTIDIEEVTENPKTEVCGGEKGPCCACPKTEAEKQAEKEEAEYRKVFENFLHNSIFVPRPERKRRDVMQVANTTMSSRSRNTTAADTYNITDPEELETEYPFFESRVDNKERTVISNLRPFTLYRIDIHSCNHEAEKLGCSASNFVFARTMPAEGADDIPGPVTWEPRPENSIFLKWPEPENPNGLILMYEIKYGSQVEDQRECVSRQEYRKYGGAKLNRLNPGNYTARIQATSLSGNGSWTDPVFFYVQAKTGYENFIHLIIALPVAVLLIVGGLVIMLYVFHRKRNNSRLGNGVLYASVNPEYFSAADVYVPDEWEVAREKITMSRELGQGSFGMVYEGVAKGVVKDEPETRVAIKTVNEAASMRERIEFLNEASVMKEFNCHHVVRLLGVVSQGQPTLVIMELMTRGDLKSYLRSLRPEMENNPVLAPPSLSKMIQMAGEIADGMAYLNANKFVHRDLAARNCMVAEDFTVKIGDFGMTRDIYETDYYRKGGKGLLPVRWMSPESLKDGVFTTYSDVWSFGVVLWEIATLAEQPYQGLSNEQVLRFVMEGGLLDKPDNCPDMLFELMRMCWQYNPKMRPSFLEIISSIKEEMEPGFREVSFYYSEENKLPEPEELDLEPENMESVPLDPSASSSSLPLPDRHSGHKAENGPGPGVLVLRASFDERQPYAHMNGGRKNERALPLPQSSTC
PROCEDURE_DETAILS: cell-based or functional assay
# key: entry, value: Proliferation activity on human myoblast cells (%), 0.005 nM, Experiment 2
All answers are understood in %, so give the number only.

anti-IGF-I receptor humanized antibody R11-16F (antibody, human IgG4, V domains shown, also called R11-16F antibody; R11-16VH + R11-16VL-C36) VH: QVQLVQPGAELVKPGASVKVSCKAPGYTFTSYWMHWVRQAPGQGLEWIGETNPSNSVTNYNEKFKSKATLTVDTSTSTVYMELSSLRSEDTAVYYCTIGRGRGFAYWGQGTLVTVSS VL: DIQMTQSPSSLSASVGDRVTITCRASQNINFWLSWCQQKPGKAPKLLIYKASNLHTGVPSRFSGSGSGTDFTFTISSLQPEDIATYYCLQGQSYPYTFGQGTKLEIK : 148

*Q* Give its Proliferation activity on human myoblast cells (%), 0.005 nM, Experiment 2 value. Item: anti-IGF-I receptor humanized antibody R11-16C (antibody, human IgG4, V domains shown, also called R11-16C antibody; R11-16VH + R11-16VL-C36A) VH: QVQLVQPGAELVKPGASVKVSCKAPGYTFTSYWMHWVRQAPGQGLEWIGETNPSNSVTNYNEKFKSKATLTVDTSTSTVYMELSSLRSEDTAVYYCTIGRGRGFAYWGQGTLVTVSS VL: DIQMTQSPSSLSASVGDRVTITCRASQNINFWLSWAQQKPGKAPKLLIYKASNLHTGVPSRFSGSGSGTDFTFTISSLQPEDIATYYCLQGQSYPYTFGQGTKLEIK
*A* 143

*Q* Bench note: what Proliferation activity on human myoblast cells (%), 0.005 nM, Experiment 2 did anti-IGF-I receptor humanized antibody R11-16E (antibody, human IgG4, V domains shown, also called R11-16E antibody; R11-16VH + R11-16VL-C36F) VH: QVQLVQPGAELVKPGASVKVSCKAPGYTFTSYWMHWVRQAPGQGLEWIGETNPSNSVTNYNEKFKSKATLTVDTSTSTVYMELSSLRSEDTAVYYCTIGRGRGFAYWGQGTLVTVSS VL: DIQMTQSPSSLSASVGDRVTITCRASQNINFWLSWFQQKPGKAPKLLIYKASNLHTGVPSRFSGSGSGTDFTFTISSLQPEDIATYYCLQGQSYPYTFGQGTKLEIK show?
*A* 143

*Q* Report Proliferation activity on human myoblast cells (%), 0.005 nM, Experiment 2 for anti-IGF-I receptor humanized antibody R11-16B (antibody, human IgG4, V domains shown, Heavy chain constant region: human IgG4 S228P variant; Expressed in Expi293, protein A purified; also called R11-16B antibody; R11-16VH + R11-16VL-C36Y) VH: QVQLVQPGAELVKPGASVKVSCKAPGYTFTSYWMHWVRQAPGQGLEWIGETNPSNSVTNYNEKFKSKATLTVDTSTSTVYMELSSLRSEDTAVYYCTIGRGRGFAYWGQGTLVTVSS VL: DIQMTQSPSSLSASVGDRVTITCRASQNINFWLSWYQQKPGKAPKLLIYKASNLHTGVPSRFSGSGSGTDFTFTISSLQPEDIATYYCLQGQSYPYTFGQGTKLEIK please.
*A* 148

*Q* Please give the measured Proliferation activity on human myoblast cells (%), 0.005 nM, Experiment 2 for this binder: anti-IGF-I receptor humanized antibody R11-16D (antibody, human IgG4, V domains shown, also called R11-16D antibody; R11-16VH + R11-16VL-C36S) VH: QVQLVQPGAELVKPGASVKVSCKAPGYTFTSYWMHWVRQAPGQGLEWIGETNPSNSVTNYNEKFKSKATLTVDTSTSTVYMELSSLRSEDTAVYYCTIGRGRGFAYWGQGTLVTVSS VL: DIQMTQSPSSLSASVGDRVTITCRASQNINFWLSWSQQKPGKAPKLLIYKASNLHTGVPSRFSGSGSGTDFTFTISSLQPEDIATYYCLQGQSYPYTFGQGTKLEIK
*A* 149
